Each entry below carries its reported INHIBITION.
test system: Plasmodium berghei; assay: Screen against P. berghei liver stage (PbLuc), transformed with Luciferase, at 10uM; type: functional, HepG2; conditions: tested at 10 uM
Hit rate of the full screen: of about 69,000 compounds, about 8,600 (12%) showed an effect of 50% or more. This excerpt belongs to a sample that is enriched for strong results.
Measure: INHIBITION (%)

molecule=CCc1nnc2n1CCN(C(=O)c1cc3ccc(C)cc3[nH]1)C2 recorded_number=23.7
molecule=O=C(CCc1ccccc1F)N1CCC(Nc2cccnn2)CC1 recorded_number=1.78
molecule=COC(=O)CNC(=O)N1CCN(c2nc3ccccc3n2C)CC1 recorded_number=10.7
molecule="CC(OCC1CC1)C(=O)Nc1ncn(CC(=O)N2CCCCCC2)n1 (stereo not given)" recorded_number=51.7
molecule="CC(NC(=O)NCCCN(C)S(C)(=O)=O)c1ccncc1 (stereo not given)" recorded_number=1.77
molecule="O=C(CC1C=CCC1)Nc1ncn(CC(=O)N2CCCCCC2)n1 (stereo not given)" recorded_number=50.6
molecule="CS(=O)(=O)N1CCOC2(CCCN(c3cnccn3)C2)C1 (stereo not given)" recorded_number=-14
molecule=O=C(Nc1ncn(CC(=O)N2CCCCCC2)n1)C1CCCC1 recorded_number=2.7
molecule=CC(C)CCN(C)Cc1ccccc1-c1nc(C(C)C)cc(=O)[nH]1 recorded_number=-6.83
molecule=COCCN1CCO[C@@H]2CN(Cc3ccccc3OC)C[C@@H]2C1 recorded_number=2.4
molecule=O=C(O)CNc1cc(-c2cc(C(=O)NC3CC3)ccn2)c2cc[nH]c2n1 recorded_number=-21.1
molecule=Cc1ccc(C(=O)N2CCC3(CC2)CN(c2ccccn2)CCO3)cc1 recorded_number=49.7
molecule="Cc1cc(C)c(C(=O)N2CCOC(CCN(C)C)C2)o1 (stereo not given)" recorded_number=-5.12
molecule=CN1CCN(C(=O)c2cc3sccc3n2Cc2ccccc2)CC1 recorded_number=11.7
molecule="CC(C)C1CN(C(=O)c2cc(=O)[nH]c(=O)[nH]2)CCC(=O)N1CC1CC1 (stereo not given)" recorded_number=9.35
